conditions: in ethyl acetate, 312.95 K
measurementKind: solubility (mole fraction)

> print(dat)
                                   compound  reported
1  CC1(C)COP(=O)(C(Nc2ccccc2)c2ccccc2)OC1 (stereo unspecified)   0.00561

====

details: in dichloromethane, 310.95 K
measurementKind: solubility (mole fraction)

> print(dat)
                                   molecule  reported
1  CC1(C)COP(=O)(C(Nc2ccccc2)c2ccccc2)OC1 (stereo unspecified)    0.0317

====

details: in tetrachloromethane, 332.15 K
measurementKind: solubility (mole fraction)

> print(dat)
                                   compound             measurementkind  reported
1  CC1(C)COP(=O)(C(Nc2ccccc2)c2ccccc2)OC1 (stereo unspecified)  solubility (mole fraction)   0.00203
